Test system: Plasmodium falciparum Sir2 (PF13_0152, Sir2A)
assay-name: pfSir2 binders on small-molecule microarrays, primary screen, biochemical, small-molecule microarray, 635 nm fluorescence (AID 1098);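 also: score merges spot fluorescence intensity with its signal-to-noise ratio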
details: small-molecule microarray binding, fluorescence 635 nm; higher = more signal
Measured composite z-score of individual entries
Respond numerically, and do not add a unit to the figure.

Please review the entries below; each comes with its answer.
smiles-text	quantitative-result
COC(=O)C(CC#Cc1ccc2c(c1)[C@]1(C(=O)N2)[C@H](c2ccc(OCCO)cc2)N2[C@H](c3ccccc3)[C@H](c3ccccc3)OC(=O)[C@H]2[C@@H]1C(N)=O)C(=O)OC	1.01
COC(=O)C(CC#Cc1ccc2c(c1)[C@]1(C(=O)N2)[C@H](C(=O)N2CCN(c3ncccn3)CC2)[C@H]2C(=O)O[C@H](c3ccccc3)[C@H](c3ccccc3)N2[C@@H]1c1ccc(O)cc1)C(=O)OC	1.57
CC(=O)NCCCC[C@@H]1NC(=O)[C@H]2C[C@@H](C(=O)NCCCCCN)[C@@H](c3ccc(O)cc3)N2C1=O	0.863
CC(C)N1C(=O)[C@@]2(Cc3ccccc31)c1ccccc1C(=O)N(Cc1ccccc1C(F)(F)F)[C@H]2c1ccc(CO)cc1	1.73

# evaluate next
Problem: What does the data say about its composite z-score? Entry: "COC(=O)[C@@]1(Cc2ccc(F)cc2)[C@H]2c3cc(C(=O)N(C)C)n(Cc4ccc(C(F)(F)F)nc4)c3C[C@H]2CN1C(=O)c1ccccc1"
Solution: 1.12
